- STUDY TARGET: CDK16/CycY (Homo sapiens, UniProt Q00536)
- Construct: ICE Bioscience Inc. (assay service)
- Sequence (Q00536 whole entry, species assumed, one chain of several): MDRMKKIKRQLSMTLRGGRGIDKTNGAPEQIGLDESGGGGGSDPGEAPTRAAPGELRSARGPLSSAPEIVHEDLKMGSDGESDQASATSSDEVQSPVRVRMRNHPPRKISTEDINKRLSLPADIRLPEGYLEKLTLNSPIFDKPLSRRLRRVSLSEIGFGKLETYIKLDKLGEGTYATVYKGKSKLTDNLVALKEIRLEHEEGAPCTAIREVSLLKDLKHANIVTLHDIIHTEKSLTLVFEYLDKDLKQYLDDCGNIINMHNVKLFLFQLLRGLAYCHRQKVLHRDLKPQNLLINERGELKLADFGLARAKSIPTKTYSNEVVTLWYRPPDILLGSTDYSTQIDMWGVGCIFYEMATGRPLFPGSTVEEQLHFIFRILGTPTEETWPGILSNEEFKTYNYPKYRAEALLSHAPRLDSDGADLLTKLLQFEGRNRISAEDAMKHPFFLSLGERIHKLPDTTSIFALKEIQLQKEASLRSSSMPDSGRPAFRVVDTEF
- EXPERIMENT: CDK family panel, ADP-Glo
- Format: biochemical
MEASUREMENT NAME: IC50

**Query** Name the recorded IC50 for C=CC(=O)Nc1cc(N(C(=O)NCc2ccccc2)[C@H]2CC[C@H](Nc3ccc(C#N)cn3)CC2)ccc1N1CCC(N(C)C)CC1 [YJZ5118] .
**Result** > 10000 nM

----------
- STUDY TARGET: CDK14/CycY (Homo sapiens, UniProt O94921)
- Construct: ICE Bioscience Inc. (assay service)
- Sequence (O94921 whole entry, species assumed): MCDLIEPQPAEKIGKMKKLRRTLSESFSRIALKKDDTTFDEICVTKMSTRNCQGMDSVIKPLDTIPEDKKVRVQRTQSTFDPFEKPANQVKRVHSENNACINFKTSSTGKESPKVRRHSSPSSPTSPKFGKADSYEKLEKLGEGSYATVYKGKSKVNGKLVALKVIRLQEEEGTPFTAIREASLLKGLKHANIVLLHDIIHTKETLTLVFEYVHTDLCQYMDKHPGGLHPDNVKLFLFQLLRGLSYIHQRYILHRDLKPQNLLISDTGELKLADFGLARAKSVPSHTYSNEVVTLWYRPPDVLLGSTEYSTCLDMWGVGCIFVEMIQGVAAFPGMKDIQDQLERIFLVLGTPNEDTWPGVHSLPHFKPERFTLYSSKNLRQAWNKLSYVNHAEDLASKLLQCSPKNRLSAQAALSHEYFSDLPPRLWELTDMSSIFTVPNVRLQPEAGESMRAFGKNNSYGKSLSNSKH
- Sequence (Q8ND76 whole entry partner, species assumed): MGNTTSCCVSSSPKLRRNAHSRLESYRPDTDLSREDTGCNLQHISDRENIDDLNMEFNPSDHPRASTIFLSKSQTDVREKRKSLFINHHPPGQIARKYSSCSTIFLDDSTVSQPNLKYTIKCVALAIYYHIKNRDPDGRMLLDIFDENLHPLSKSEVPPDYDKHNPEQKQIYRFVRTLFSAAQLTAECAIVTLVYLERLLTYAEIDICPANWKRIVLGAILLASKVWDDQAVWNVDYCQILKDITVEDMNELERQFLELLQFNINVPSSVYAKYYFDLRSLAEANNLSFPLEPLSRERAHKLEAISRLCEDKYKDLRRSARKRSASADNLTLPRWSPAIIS
- EXPERIMENT: CDK family panel, ADP-Glo
- Assay type: biochemical
MEASUREMENT NAME: IC50

**Query** Find the recorded IC50 belonging to C=CC(=O)Nc1cc(N(C(=O)NCc2ccccc2)[C@H]2CC[C@H](Nc3ccc(C#N)cn3)CC2)ccc1N1CCC(N(C)C)CC1 [YJZ5118] and report it.
**Result** > 10000 nM
